inhibition at 0.1 µM values, listed per item
Molecular target: PI3K-δ (PI3K(p1108/p857) (h)) (Homo sapiens, UniProt O00329)
Sequence (O00329 whole entry): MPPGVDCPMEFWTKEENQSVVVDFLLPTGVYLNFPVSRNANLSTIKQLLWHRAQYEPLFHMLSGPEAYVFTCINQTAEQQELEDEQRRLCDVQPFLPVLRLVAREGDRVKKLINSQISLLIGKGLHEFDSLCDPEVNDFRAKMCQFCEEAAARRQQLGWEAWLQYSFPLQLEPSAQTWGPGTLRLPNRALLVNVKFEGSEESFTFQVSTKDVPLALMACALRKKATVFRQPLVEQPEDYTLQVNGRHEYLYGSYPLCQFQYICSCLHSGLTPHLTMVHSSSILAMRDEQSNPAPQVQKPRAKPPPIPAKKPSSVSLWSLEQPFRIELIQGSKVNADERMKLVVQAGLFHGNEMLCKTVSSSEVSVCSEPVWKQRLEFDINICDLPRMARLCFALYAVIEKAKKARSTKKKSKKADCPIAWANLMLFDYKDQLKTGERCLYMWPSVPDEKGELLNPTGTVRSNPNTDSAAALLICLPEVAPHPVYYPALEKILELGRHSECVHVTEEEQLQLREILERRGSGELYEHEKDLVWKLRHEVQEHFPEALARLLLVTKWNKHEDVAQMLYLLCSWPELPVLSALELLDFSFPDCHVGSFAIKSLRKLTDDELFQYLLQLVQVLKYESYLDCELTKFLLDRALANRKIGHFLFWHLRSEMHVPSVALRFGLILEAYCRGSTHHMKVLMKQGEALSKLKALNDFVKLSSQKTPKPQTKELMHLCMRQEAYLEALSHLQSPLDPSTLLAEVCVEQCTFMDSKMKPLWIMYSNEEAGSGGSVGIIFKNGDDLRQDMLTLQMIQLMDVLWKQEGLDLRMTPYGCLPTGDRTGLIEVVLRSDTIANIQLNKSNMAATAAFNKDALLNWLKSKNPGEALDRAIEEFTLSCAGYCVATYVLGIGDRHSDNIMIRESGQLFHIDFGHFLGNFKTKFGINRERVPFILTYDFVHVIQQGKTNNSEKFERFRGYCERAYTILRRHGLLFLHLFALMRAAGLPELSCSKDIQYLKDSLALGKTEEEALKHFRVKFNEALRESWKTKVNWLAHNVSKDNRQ
Sequence (P27986 whole entry partner): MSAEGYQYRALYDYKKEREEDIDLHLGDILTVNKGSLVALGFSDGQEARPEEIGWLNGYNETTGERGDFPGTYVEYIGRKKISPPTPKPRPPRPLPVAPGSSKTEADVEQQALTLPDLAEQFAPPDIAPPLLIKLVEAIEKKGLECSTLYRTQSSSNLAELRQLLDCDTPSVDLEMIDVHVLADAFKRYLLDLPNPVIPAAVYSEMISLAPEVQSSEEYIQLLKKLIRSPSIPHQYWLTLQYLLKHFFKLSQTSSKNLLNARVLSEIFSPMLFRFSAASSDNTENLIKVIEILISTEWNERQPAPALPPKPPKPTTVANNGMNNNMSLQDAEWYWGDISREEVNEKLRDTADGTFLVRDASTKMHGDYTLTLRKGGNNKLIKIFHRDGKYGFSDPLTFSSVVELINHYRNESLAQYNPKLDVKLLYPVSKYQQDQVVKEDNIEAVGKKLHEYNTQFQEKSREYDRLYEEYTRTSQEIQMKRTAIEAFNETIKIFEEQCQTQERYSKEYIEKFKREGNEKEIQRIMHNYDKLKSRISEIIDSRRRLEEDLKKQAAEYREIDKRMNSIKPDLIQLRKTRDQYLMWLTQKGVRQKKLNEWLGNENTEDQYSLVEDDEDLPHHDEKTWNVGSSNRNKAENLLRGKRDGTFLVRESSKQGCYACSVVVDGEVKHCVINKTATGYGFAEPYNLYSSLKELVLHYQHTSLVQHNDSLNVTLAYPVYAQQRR
Assay: Evaluation of inhibitory activity against PI3K-δ (HTRF kinase assay)
Format: biochemical
Conditions: compound concentration 0.1 μM; read-out: EXP_VALUE(% Inhibition) PI3K-δ 0.1 μM
MEASUREMENT_LABEL: inhibition at 0.1 µM (%)

INSERT INTO measurements (structure, measurement_label, result_value) VALUES
  ('C[C@H](Nc1ncnc2[nH]ccc(=O)c12)c1c(Cl)c2cccc(N3Cc4ccccc4C3)c2c(=O)n1-c1ccccc1', 'inhibition at 0.1 µM', 91),
  ('Cc1cc(C#N)ccc1-c1cccc2c(Cl)c([C@H](C)Nc3ncnc4[nH]ccc(=O)c34)n(-c3ccccc3)c(=O)c12', 'inhibition at 0.1 µM', 92),
  ('C[C@H](Nc1ncnc2[nH]ccc(=O)c12)c1c(Cl)c2cccc(-c3ccncc3)c2c(=O)n1-c1ccccc1', 'inhibition at 0.1 µM', 92),
  ('C[C@H](Nc1ncnc2[nH]ccc(=O)c12)c1c(Cl)c2cccc(N3CCc4ccccc43)c2c(=O)n1-c1ccccc1', 'inhibition at 0.1 µM', 91),
  ('C[C@H](Nc1ncnc2[nH]ccc(=O)c12)c1c(Cl)c2cccc(-c3ccc(N4CCCCC4)cc3)c2c(=O)n1-c1ccccc1', 'inhibition at 0.1 µM', 88),
  ('C[C@H](Nc1ncnc2[nH]ccc(=O)c12)c1c(Cl)c2cccc(C#Cc3cncnc3)c2c(=O)n1-c1ccccc1', 'inhibition at 0.1 µM', 91);

----------
Target: PI3K-δ (PI3K(p1108/p857) (h)) (Homo sapiens)
Assay: Evaluation of inhibitory activity against PI3K-δ (HTRF kinase assay)
Assay type: biochemical
Conditions: compound at 0.1 μM; read-out: EXP_VALUE(% Inhibition) PI3K-δ 0.1 μM
Returns one of fulfilled or not fulfilled; fulfilled when inhibition at 0.1 µM is >= 70%.

INSERT INTO results (structure, answer_label) VALUES
  ('C[C@H](Nc1ncnc2[nH]ccc(=O)c12)c1c(Cl)c2cccc(-c3cnc(-c4ccco4)nc3)c2c(=O)n1-c1ccccc1', 'not fulfilled'),
  ('C[C@H](Nc1ncnc2[nH]ccc(=O)c12)c1c(Cl)c2cccc(S(=O)(=O)c3ccc(Cl)cc3)c2c(=O)n1-c1ccccc1', 'fulfilled'),
  ('C[C@H](Nc1ncnc2[nH]ccc(=O)c12)c1c(Cl)c2cccc(-c3cnc(C4(O)CCC4)nc3)c2c(=O)n1-c1ccccc1', 'fulfilled'),
  ('C[C@H](Nc1ncnc2[nH]ccc(=O)c12)c1cc2cccc(-c3cnc(C(C)(C)O)nc3)c2c(=O)n1-c1ccccc1', 'fulfilled');

----------
Target: PI3K-δ (PI3K(p1108/p857) (h)) (Homo sapiens)
Assay: Evaluation of inhibitory activity against PI3K-δ (HTRF kinase assay)
Assay type: biochemical
Conditions: compound concentration 0.01 μM; read-out: EXP_VALUE(% Inhibition) PI3K-δ 0.01 μM
Returns T if the recorded inhibition at 0.01 µM is greater than or equal to 80%, and F otherwise.

INSERT INTO assay_data (molecule, target_entity, answer_label) VALUES
  ('C[C@H](Nc1ncnc2[nH]ccc(=O)c12)c1c(Cl)c2cccc(-c3cccc(F)c3F)c2c(=O)n1-c1ccccc1 [Example 129]', 'PI3K-δ (PI3K(p1108/p857) (h)) (Homo sapiens)', 'F'),
  ('C[C@H](Nc1ncnc2[nH]ccc(=O)c12)c1c(Cl)c2cccc(-c3cncnc3C3CCCC3)c2c(=O)n1-c1ccccc1 [Example 59]', 'PI3K-δ (PI3K(p1108/p857) (h)) (Homo sapiens)', 'F'),
  ('C[C@H](Nc1ncnc2[nH]ccc(=O)c12)c1c(Cl)c2cccc(-c3ccc(OCC(F)(F)F)nc3)c2c(=O)n1-c1ccccc1 [Example 147]', 'PI3K-δ (PI3K(p1108/p857) (h)) (Homo sapiens)', 'F'),
  ('C[C@H](Nc1ncnc2[nH]ccc(=O)c12)c1c(Cl)c2cccc(-c3cccc4cn[nH]c34)c2c(=O)n1-c1ccccc1 [Example 239]', 'PI3K-δ (PI3K(p1108/p857) (h)) (Homo sapiens)', 'F'),
  ('C[C@H](Nc1ncnc2[nH]ccc(=O)c12)c1c(Cl)c2cccc(-c3cncc(S(C)(=O)=O)c3)c2c(=O)n1-c1ccccc1 [Example 218]', 'PI3K-δ (PI3K(p1108/p857) (h)) (Homo sapiens)', 'T'),
  ('C[C@H](Nc1ncnc2[nH]ccc(=O)c12)c1c(Cl)c2cccc(-c3ccc4[nH]cnc4c3)c2c(=O)n1-c1ccccc1 [Example 125]', 'PI3K-δ (PI3K(p1108/p857) (h)) (Homo sapiens)', 'F');

----------
Molecular target: DNA-PK(h) (Homo sapiens, UniProt P78527)
Assay: Evaluation of inhibitory activity against DNA-PK (HTRF kinase assay, GST-cMyc-p53 substrate)
Format: biochemical
Conditions: compound concentration 0.1 μM; read-out: EXP_VALUE(% Inhibition) DNA-PK(h) 0.1 μM
Listed here: items and their measured inhibition at 0.1 µM.
MEASUREMENT_LABEL: inhibition at 0.1 µM (%)

INSERT INTO measurements (structure, result_value) VALUES
  ('C[C@H](Nc1ncnc2[nH]ccc(=O)c12)c1c(Cl)c2cccc(-c3ccc(-c4ccccc4)cc3)c2c(=O)n1-c1ccccc1', 82),
  ('C[C@H](Nc1ncnc2[nH]ccc(=O)c12)c1c(Br)c2cccc(-c3ccc(F)cc3)c2c(=O)n1-c1ccccc1', 98),
  ('C[C@H](Nc1ncnc2[nH]ccc(=O)c12)c1c(Cl)c2cccc(-c3cccc(F)c3F)c2c(=O)n1-c1ccccc1', 91),
  ('C[C@H](Nc1ncnc2[nH]ccc(=O)c12)c1c(Cl)c2cccc(C#Cc3cncs3)c2c(=O)n1-c1ccccc1', 84.6),
  ('C[C@H](Nc1ncnc2[nH]ccc(=O)c12)c1c(Cl)c2cccc(-c3ccc(N4CCCCC4)cc3)c2c(=O)n1-c1ccccc1', 78),
  ('C[C@H](Nc1ncnc2[nH]ccc(=O)c12)c1c(Cl)c2cccc(-c3cnn(C4CC4)c3)c2c(=O)n1-c1ccccc1', 100),
  ('C[C@H](Nc1ncnc2[nH]ccc(=O)c12)c1c(Cl)c2cccc(N3CCN(c4ccccn4)CC3)c2c(=O)n1-c1ccccc1', 62),
  ('COc1ccc(-c2cccc3c(Cl)c([C@H](C)Nc4ncnc5[nH]ccc(=O)c45)n(-c4ccccc4)c(=O)c23)cn1', 99),
  ('C[C@H](Nc1ncnc2[nH]ccc(=O)c12)c1c(Cl)c2cccc(-c3cccc(Cl)c3)c2c(=O)n1-c1ccccc1', 87),
  ('Cc1ccc(-c2cccc3c(Cl)c([C@H](C)Nc4ncnc5[nH]ccc(=O)c45)n(-c4ccccc4)c(=O)c23)o1', 98);

----------
Biological target: PI3K-δ (PI3K(p1108/p857) (h)) (Homo sapiens)
Assay: Evaluation of inhibitory activity against PI3K-δ (HTRF kinase assay)
Format: biochemical
Conditions: compound concentration 0.1 μM; read-out: EXP_VALUE(% Inhibition) PI3K-δ 0.1 μM
The reader will find reported inhibition at 0.1 µM values listed item by item below.
MEASUREMENT_LABEL: inhibition at 0.1 µM (%)

INSERT INTO assay_data (compound, result_value) VALUES
  ('CCc1cccc2c(Cl)c([C@H](C)Nc3ncnc4[nH]ccc(=O)c34)n(-c3ccccc3)c(=O)c12 [Example 354]', 106),
  ('C[C@H](Nc1ncnc2[nH]ccc(=O)c12)c1c(Cl)c2cccc(-c3ccccc3F)c2c(=O)n1-c1ccccc1 [Example 122]', 88),
  ('C[C@H](Nc1ncnc2[nH]ccc(=O)c12)c1c(Br)c2cccc(-c3ccc(N(C)C)cc3)c2c(=O)n1-c1ccccc1 [Example 16]', 88),
  ('C[C@H](Nc1ncnc2[nH]ccc(=O)c12)c1c(Cl)c2cccc(-c3cccc(F)c3Cl)c2c(=O)n1-c1ccccc1 [Example 106]', 87);
